assay: 7-day mouse toxicology study: toxicokinetics (plasma, brain, CSF), 30 mg/kg/day PO; assay type: in vivo, male C57BL/6 mice; conditions: male, C57BL/6, mouse, brain, po, 30 mg/kg, Day 1, Brain, 30 mg/kg PO; read-out: AUClast
ENDPOINT LABEL: AUC(0-t)

compound="Cc1cccnc1[C@@H]1CCC[C@H](c2nc3cccc(N4CCN(C)CC4)c3[nH]2)N1C (racemic)" endpoint_label=AUC(0-t) measurement="4260 ng·h/mL"

* * *

Parameter IC50: see the listing below.
biological target: Jurkat cells expressing CXCR4 (Homo sapiens, UniProt P61073); construct: endogenous in cells; assay: Chemokine (CXCL12-AF647) binding inhibition assay; details: CXCL12-AF647 25 ng/mL, read-out: IC50 CXCL-12 binding Jurkat
Sequence (P61073 whole entry): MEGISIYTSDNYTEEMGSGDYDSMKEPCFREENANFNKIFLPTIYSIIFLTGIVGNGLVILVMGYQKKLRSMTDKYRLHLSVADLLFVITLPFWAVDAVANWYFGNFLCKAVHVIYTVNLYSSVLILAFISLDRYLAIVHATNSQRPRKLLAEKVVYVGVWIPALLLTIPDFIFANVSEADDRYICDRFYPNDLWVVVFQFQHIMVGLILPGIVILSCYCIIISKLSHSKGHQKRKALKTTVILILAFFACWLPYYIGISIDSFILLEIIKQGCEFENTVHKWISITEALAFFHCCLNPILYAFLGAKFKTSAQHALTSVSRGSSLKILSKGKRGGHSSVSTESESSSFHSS
ENDPOINT LABEL: IC50

molecule=CN1CCC(c2cccc3nc([C@H]4CCC[C@@H](c5ncccc5Cl)N4)[nH]c23)CC1 study_system="Jurkat cells expressing CXCR4 (Homo sapiens, UniProt P61073)" endpoint_label=IC50 measurement="0.01 to 100 nM"
molecule=CN1CCC(n2c([C@H]3CCC[C@@H](c4ncccc4Cl)N3)nc3ccccc32)CC1 study_system="Jurkat cells expressing CXCR4 (Homo sapiens, UniProt P61073)" endpoint_label=IC50 measurement="0.01 to 100 nM"
molecule=CN1CCC(n2c([C@H]3CCC[C@@H](c4ccccn4)N3)nc3ccccc32)CC1 study_system="Jurkat cells expressing CXCR4 (Homo sapiens, UniProt P61073)" endpoint_label=IC50 measurement="0.01 to 100 nM"
molecule=Cc1cccnc1[C@@H]1CCC[C@H](c2nc3ccccc3n2CCCNC2CCOCC2)N1C study_system="Jurkat cells expressing CXCR4 (Homo sapiens, UniProt P61073)" endpoint_label=IC50 measurement="0.01 to 100 nM"
molecule=Cc1cccnc1[C@@H]1CCC[C@H](c2nc3cccc(N4CC5CC(C4)N5C)c3[nH]2)N1C study_system="Jurkat cells expressing CXCR4 (Homo sapiens, UniProt P61073)" endpoint_label=IC50 measurement="0.01 to 100 nM"
molecule="Cc1cccnc1[C@@H]1CCCC(c2nccn2CCCc2ccccn2)N1 (stereo in doubt)" study_system="Jurkat cells expressing CXCR4 (Homo sapiens, UniProt P61073)" endpoint_label=IC50 measurement="100 to 1000 nM"
molecule=CN1CCN(c2cccc3nc([C@H]4CCC[C@@H](c5ncccc5OC5CC5)N4C)[nH]c23)CC1 study_system="Jurkat cells expressing CXCR4 (Homo sapiens, UniProt P61073)" endpoint_label=IC50 measurement="100 to 1000 nM"
molecule=Cc1cccnc1[C@@H]1CCC[C@H](c2nc3cccc(N4CCN(c5ccccn5)CC4)c3[nH]2)N1 study_system="Jurkat cells expressing CXCR4 (Homo sapiens, UniProt P61073)" endpoint_label=IC50 measurement="100 to 1000 nM"
molecule=CN1C2CCC1CN(c1cccc3nc([C@H]4CCC[C@@H](c5ncccc5Cl)N4)[nH]c13)C2 study_system="Jurkat cells expressing CXCR4 (Homo sapiens, UniProt P61073)" endpoint_label=IC50 measurement="0.01 to 100 nM"
molecule=Cc1cccnc1[C@@H]1CCC[C@H](c2nc3cccc(N4CCN(C)CC4)c3n2C)N1 study_system="Jurkat cells expressing CXCR4 (Homo sapiens, UniProt P61073)" endpoint_label=IC50 measurement="0.01 to 100 nM"
molecule="Cc1cccnc1[C@@H]1CCC[C@H](c2nc3ccccc3n2CC2CCCNC2)N1C (some centres unmarked)" study_system="Jurkat cells expressing CXCR4 (Homo sapiens, UniProt P61073)" endpoint_label=IC50 measurement="0.01 to 100 nM"
molecule="Cc1cccnc1[C@@H]1CCC[C@H](c2nc3cccc(N4CCN(C)CC4)c3[nH]2)N1C (single isomer, unassigned) [I-3a]" study_system="Jurkat cells expressing CXCR4 (Homo sapiens, UniProt P61073)" endpoint_label=IC50 measurement="0.01 to 100 nM"
molecule=Cc1cccnc1[C@@H]1CCC[C@H](c2nc3cccc(N4CC5CCC(C4)N5C)c3[nH]2)N1 study_system="Jurkat cells expressing CXCR4 (Homo sapiens, UniProt P61073)" endpoint_label=IC50 measurement="0.01 to 100 nM"
molecule=CN1CCC(n2c([C@H]3CCC[C@@H](c4ncccc4Cl)N3C)nc3ccccc32)CC1 study_system="Jurkat cells expressing CXCR4 (Homo sapiens, UniProt P61073)" endpoint_label=IC50 measurement="0.01 to 100 nM"
molecule=Cc1cccnc1[C@@H]1CCC[C@H](c2nc3ccccc3n2CCCN)N1C study_system="Jurkat cells expressing CXCR4 (Homo sapiens, UniProt P61073)" endpoint_label=IC50 measurement="0.01 to 100 nM"
molecule=Cc1cccnc1[C@@H]1CCC[C@H](c2nc3cccc(OC4CCN(C)CC4)c3[nH]2)N1C study_system="Jurkat cells expressing CXCR4 (Homo sapiens, UniProt P61073)" endpoint_label=IC50 measurement="0.01 to 100 nM"
molecule=Cc1cccnc1[C@@H]1CCC[C@H](c2nc3cccc(N4CCNC(C)(C)C4)c3[nH]2)N1C study_system="Jurkat cells expressing CXCR4 (Homo sapiens, UniProt P61073)" endpoint_label=IC50 measurement="0.01 to 100 nM"
